- System Name: HIV Env, isolate 6811.v7.c18 (HIV)
- Assay Details: cell-based or functional assay

{"Binder": "ePGDM13 (antibody, V domains shown) VH: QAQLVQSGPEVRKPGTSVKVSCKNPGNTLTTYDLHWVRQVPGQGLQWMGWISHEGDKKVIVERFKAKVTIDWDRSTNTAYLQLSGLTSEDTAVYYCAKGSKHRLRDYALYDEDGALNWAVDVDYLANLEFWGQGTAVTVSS VL: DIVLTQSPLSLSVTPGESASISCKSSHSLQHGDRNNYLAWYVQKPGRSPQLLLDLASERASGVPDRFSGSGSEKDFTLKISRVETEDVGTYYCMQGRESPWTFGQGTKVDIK", "IC80 (µg/ml) with constrains": "> 100 µg/mL"}
